Would you mind telling me the reported pKa of each entry?
assay.info: physchem
particulars: pH 2
Give bare numbers.

Before answering, review these 6 worked examples.
Cc1[nH]nnc1-c1ccccc1	9.11
c1cc(-c2cnn[nH]2)ccn1	7.85
Clc1ccc(Cl)c(-c2c[nH]nn2)c1	8.17
c1c[nH]nn1	9.26
Clc1cccc(-c2c[nH]nn2)c1Cl	8.06
c1cncc(-c2c[nH]nn2)c1	8.14

Let's switch to this molecule now.
Enquiry: Quick one: pKa for `COc1ccccc1-c1c[nH]nn1` ?
Return: 8.99

###

target.under.test: Indoleamine 2,3-dioxygenase 1 (Homo sapiens)
Sequence (P14902 whole entry): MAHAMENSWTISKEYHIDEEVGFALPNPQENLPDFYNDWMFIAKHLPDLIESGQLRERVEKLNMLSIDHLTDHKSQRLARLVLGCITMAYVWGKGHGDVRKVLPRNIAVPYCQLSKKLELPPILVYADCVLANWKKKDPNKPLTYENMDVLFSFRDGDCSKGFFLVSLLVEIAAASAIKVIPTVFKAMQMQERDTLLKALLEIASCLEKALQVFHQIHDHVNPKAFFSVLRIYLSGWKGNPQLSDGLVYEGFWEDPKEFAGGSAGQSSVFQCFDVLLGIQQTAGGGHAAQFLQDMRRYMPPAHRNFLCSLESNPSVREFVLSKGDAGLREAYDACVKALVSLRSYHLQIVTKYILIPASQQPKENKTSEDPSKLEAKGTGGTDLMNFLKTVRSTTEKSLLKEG
assay.info: Inhibition of human recombinant N-terminal His-tagged IDO1 (Ala2 to Gly403) overexpressed in Escherichia coli BL21 at pH 6.5 after 60 mins by HPLC analysis
Grouping key: IC50. Bins: low band: < 20 µM; middle band: ≥ 20 µM and < 300 µM; high band: ≥ 300 µM

Below are worked cases with known answers.
Fc1cc(-c2c[nH]nn2)ccn1	low band
CNc1ccccc1-c1c[nH]nn1	high band
Fc1ccc(-c2c[nH]nn2)cc1	middle band
Cc1cccc(N)c1-c1c[nH]nn1	high band

Would you kindly look at the next entry?
Enquiry: Categorize the following entry: `FC(F)(F)c1ccc(-c2c[nH]nn2)cc1`
Return: high band

###

Would you mind telling me the reported IC50 of each entry?
target.under.test: Indoleamine 2,3-dioxygenase 1 (Homo sapiens)
assay.info: Inhibition of human recombinant N-terminal His-tagged IDO1 (Ala2 to Gly403) overexpressed in Escherichia coli BL21 at pH 6.5 after 60 mins by HPLC analysis
One number for each entry, in µM.

O=[N+]([O-])c1cccc(-c2c[nH]nn2)c1	15

For each of the items listed, what is its IC50?
1. Oc1cccc(-c2c[nH]nn2)c1
2. Nc1ccccc1-c1c[nH]nn1
3. FC(F)(F)c1cc(-c2c[nH]nn2)ccn1
4. Clc1ccccc1-c1c[nH]nn1
5. Clc1cc(-c2c[nH]nn2)ccn1
6. FC(F)(F)c1cccc(-c2c[nH]nn2)c1

Return:
1. 310
2. 60
3. 15
4. 32
5. 2.8
6. 6

For each of the items listed, what is its IC50?
1. Clc1ccc(-c2c[nH]nn2)cc1
2. CCc1cccc(-c2c[nH]nn2)c1
3. Clc1ccc(Cl)c(-c2c[nH]nn2)c1

Return:
[530, 13, 6.4]

For each of the items listed, what is its IC50?
1. Cc1ccc(N)cc1-c1c[nH]nn1
2. Brc1cccc(-c2c[nH]nn2)c1

Return:
[3200, 2]

For each of the items listed, what is its IC50?
1. O=Cc1ccccc1-c1c[nH]nn1
2. Cc1ccccc1-c1c[nH]nn1

Return:
1. 1300
2. 39
